Reference source for all entries: PubChem BioAssay (NCI)

- Tested on: EKVX NSCLC
- ASSAY INFO: NCI tumour cell line growth inhibition, 48 h
VALUE TYPE: TGI

>  <COMPOUND>
O=C1CCC(=O)C12CCc1ccccc12

>  <TARGET ENTITY>
EKVX NSCLC

>  <VALUE TYPE>
TGI

>  <REPORTED>
> 100 µM

$$$$
>  <COMPOUND>
c1ccc(Oc2cnc3ccccc3n2)cc1

>  <TARGET ENTITY>
EKVX NSCLC

>  <VALUE TYPE>
TGI

>  <REPORTED>
> 100 µM

$$$$
>  <COMPOUND>
OC1OC2COC(c3ccccc3)OC2C(O)C1O (configuration not stated)

>  <TARGET ENTITY>
EKVX NSCLC

>  <VALUE TYPE>
TGI

>  <REPORTED>
> 100 µM

$$$$
>  <COMPOUND>
CCOC1=NC(C(F)(F)F)(C(F)(F)F)N=C(/N=C(/N)N(C)C(C(C)C)P(=O)(OC(C)C)OC(C)C)O1 (configuration not stated)

>  <TARGET ENTITY>
EKVX NSCLC

>  <VALUE TYPE>
TGI

>  <REPORTED>
> 100 µM

$$$$
>  <COMPOUND>
Cc1csc(CP(=O)(OC(C)C)OC(C)C)n1

>  <TARGET ENTITY>
EKVX NSCLC

>  <VALUE TYPE>
TGI

>  <REPORTED>
> 100 µM

$$$$
>  <COMPOUND>
C=CCOC1=C(OC(C)=O)C(C2COC(C)(C)O2)OC1=O (configuration not stated)

>  <TARGET ENTITY>
EKVX NSCLC

>  <VALUE TYPE>
TGI

>  <REPORTED>
39.9 µM

$$$$
>  <COMPOUND>
OC1/C(=C/c2ccccc2)CNC/C1=C\c1ccccc1 (configuration not stated)

>  <TARGET ENTITY>
EKVX NSCLC

>  <VALUE TYPE>
TGI

>  <REPORTED>
> 100 µM

$$$$
>  <COMPOUND>
O=CN/C=C\c1cc(O)ccc1O

>  <TARGET ENTITY>
EKVX NSCLC

>  <VALUE TYPE>
TGI

>  <REPORTED>
32.9 µM

$$$$
>  <COMPOUND>
COc1ccc2c(c1)[n+](=O)c(C(=O)C/C(=N\NC(=O)C[N+](C)(C)C)C(=O)Nc1cc(Cl)ccc1Cl)c(C)n2O

>  <TARGET ENTITY>
EKVX NSCLC

>  <VALUE TYPE>
TGI

>  <REPORTED>
> 100 µM

$$$$
>  <COMPOUND>
CC1(C)C/C=C\CCC(O)C(O)CCC(C)(C)C1=O (configuration not stated)

>  <TARGET ENTITY>
EKVX NSCLC

>  <VALUE TYPE>
TGI

>  <REPORTED>
> 100 µM

$$$$
>  <COMPOUND>
NC1=C(O)/C(=N/NS(=O)(=O)c2ccccc2)C(c2cccc(Cl)c2)O1 (configuration not stated)

>  <TARGET ENTITY>
EKVX NSCLC

>  <VALUE TYPE>
TGI

>  <REPORTED>
> 100 µM

$$$$
>  <COMPOUND>
COc1cc(Nc2nccc(-c3cnn4ncccc34)n2)cc(OC)c1

>  <TARGET ENTITY>
EKVX NSCLC

>  <VALUE TYPE>
TGI

>  <REPORTED>
4.96 µM

$$$$
>  <COMPOUND>
COC(=O)Cc1c(-c2c(CC(=O)OC)c3ccccc3n2C2OC(COC3OC(COC(C)=O)C(OC(C)=O)C(OC(C)=O)C3OC(C)=O)C(O)C(O)C2O)[nH]c2ccccc12 (configuration not stated)

>  <TARGET ENTITY>
EKVX NSCLC

>  <VALUE TYPE>
TGI

>  <REPORTED>
> 100 µM

$$$$
>  <COMPOUND>
C[C@H](N)C(=O)Nc1ccc(-c2nc3ccccc3s2)cc1Cl

>  <TARGET ENTITY>
EKVX NSCLC

>  <VALUE TYPE>
TGI

>  <REPORTED>
26.7 µM

$$$$
>  <COMPOUND>
O=C1OC(=O)C2C1C1(c3ccccc3)OC2(c2ccccc2)c2c(Br)c(Br)c(Br)c(Br)c21 (configuration not stated)

>  <TARGET ENTITY>
EKVX NSCLC

>  <VALUE TYPE>
TGI

>  <REPORTED>
> 100 µM

$$$$
>  <COMPOUND>
COC(=O)CCC(=O)c1ccc2c(c1)CC1(Cc3ccccc3C1)C2

>  <TARGET ENTITY>
EKVX NSCLC

>  <VALUE TYPE>
TGI

>  <REPORTED>
> 100 µM

$$$$
>  <COMPOUND>
FC(F)(F)c1ccc(N=NN2CCCC2)cc1

>  <TARGET ENTITY>
EKVX NSCLC

>  <VALUE TYPE>
TGI

>  <REPORTED>
> 100 µM

$$$$
>  <COMPOUND>
C/C(=N\Nc1nc2ccccc2[nH]1)c1ccc2ccccc2n1

>  <TARGET ENTITY>
EKVX NSCLC

>  <VALUE TYPE>
TGI

>  <REPORTED>
5.97 µM

$$$$
>  <COMPOUND>
Cc1nc2c(ccc3[nH]c4ccccc4c32)s1

>  <TARGET ENTITY>
EKVX NSCLC

>  <VALUE TYPE>
TGI

>  <REPORTED>
69.1 µM

$$$$
>  <COMPOUND>
O=c1c2ccc(Br)cc2nc(-c2ccccc2)n1NC1OC(CO)C(O)C(O)C1O (configuration not stated)

>  <TARGET ENTITY>
EKVX NSCLC

>  <VALUE TYPE>
TGI

>  <REPORTED>
> 100 µM

$$$$
>  <COMPOUND>
CN(Cc1cccc(Cl)c1)c1ccc(CO)c(Cl)c1

>  <TARGET ENTITY>
EKVX NSCLC

>  <VALUE TYPE>
TGI

>  <REPORTED>
52.1 µM

$$$$
>  <COMPOUND>
Cc1cc(=O)[nH]c2c1C(=O)C(=O)C=C2

>  <TARGET ENTITY>
EKVX NSCLC

>  <VALUE TYPE>
TGI

>  <REPORTED>
> 100 µM

$$$$
